method-notes: In vivo PK study, oral, plasma and brain
Parameters: species or system Sprague Dawley rats; concentration or dose not given beside the values
condition-description: rat; Plasma; oral, Sprague Dawley rats
measured-parameter: AUC(0-t) (ng·h/mL)

I: Cc1ccc(C(=O)Nc2ccc(CC(C)N(C)C)cc2)cc1Nc1ccnc(-c2cccnc2)n1 (centres unmarked)
II: Cc1ccc(C(=O)Nc2ccc(C3CCN(C)CC3)cc2)cc1Nc1ccnc(-c2cccnc2)n1
Exercise: Dear colleague, could you let me know whether I or II has the lower recorded AUC(0-t)? Thanks. Please indicate the selected item by its label.
Solution: I
(I: 64000 ng·h/mL, II: 92000 ng·h/mL)

----------
method-notes: In vivo PK study, oral, plasma and brain
Set-up: species or system Sprague Dawley rats; concentration or dose not given beside the values
condition-description: rat; Brain; oral, Sprague Dawley rats
measured-parameter: AUC(0-t) (ng·h/mL)

A: Cc1ccc(C(=O)Nc2ccc(CC(C)N(C)C)cc2)cc1Nc1ccnc(-c2cccnc2)n1 (centres unmarked)
B: Cc1ccc(C(=O)Nc2ccc(C3CCN(C)CC3)cc2)cc1Nc1ccnc(-c2cccnc2)n1
Exercise: Dear colleague, could you let me know whether A or B has the lower recorded AUC(0-t)? Thanks. Please indicate the selected item by its label.
Solution: A
(A: 7720 ng·h/mL, B: 13100 ng·h/mL)

----------
method-notes: In vivo PK study, oral, plasma and brain
Set-up: species or system Sprague Dawley rats; concentration or dose not given beside the values
condition-description: rat; Plasma; oral, Sprague Dawley rats
measured-parameter: AUC(0-inf) (µg·h/mL)

a: Cc1ccc(C(=O)Nc2ccc(CC(C)N(C)C)cc2)cc1Nc1ccnc(-c2cccnc2)n1 (centres unmarked)
b: Cc1ccc(C(=O)Nc2ccc(C3CCN(C)CC3)cc2)cc1Nc1ccnc(-c2cccnc2)n1
Exercise: Dear colleague, could you let me know whether a or b has the lower recorded AUC(0-inf)? Thanks. Please indicate the selected item by its label.
Solution: a

----------
method-notes: In vivo PK study, oral, plasma and brain
Set-up: species or system Sprague Dawley rats
condition-description: rat, brain and plasma; oral, Sprague Dawley rats; read-out: AUC(0-t) Brain/ AUC(0-t) plasma
Method: In the PK profiling study, Compounds 1 and 2 were administered orally to three Sprague Dawley rats. The animals were fasted overnight before drug administration. The food supply were resumed 4 hrs post dose. […] Drug concentrations in blood and brain were analyzed by LC-MS/MS. […] The ratio of brain to plasma concentration were calculated by the concentration in brain tissue versus the concentration in plasma.
measured-parameter: Kp

molecule: Cc1ccc(C(=O)Nc2ccc(CC(C)N(C)C)cc2)cc1Nc1ccnc(-c2cccnc2)n1 (centres unmarked)
Kp: 0.121
--
molecule: Cc1ccc(C(=O)Nc2ccc(C3CCN(C)CC3)cc2)cc1Nc1ccnc(-c2cccnc2)n1
Kp: 0.142

----------
method-notes: In vivo PK study, oral, plasma and brain
Design: species or system Sprague Dawley rats
condition-description: rat; Plasma; oral, Sprague Dawley rats
measured-parameter: Cmax (µg/mL)

compound: Cc1ccc(C(=O)Nc2ccc(C3CCN(C)CC3)cc2)cc1Nc1ccnc(-c2cccnc2)n1 [Compound 2]
Cmax [µg/mL]: 5.38

compound: Cc1ccc(C(=O)Nc2ccc(CC(C)N(C)C)cc2)cc1Nc1ccnc(-c2cccnc2)n1 (centres unmarked) [Compound 1]
Cmax [µg/mL]: 6.68

----------
method-notes: In vivo PK study, oral, plasma and brain
Parameters: species or system Sprague Dawley rats
condition-description: rat; Plasma; oral, Sprague Dawley rats
Description: In the PK profiling study, Compounds 1 and 2 were administered orally to three Sprague Dawley rats. The animals were fasted overnight before drug administration. The food supply were resumed 4 hrs post dose. […] Drug concentrations in blood and brain were analyzed by LC-MS/MS. […] The ratio of brain to plasma concentration were calculated by the concentration in brain tissue versus the concentration in plasma.
measured-parameter: half-life (h)

a: Cc1ccc(C(=O)Nc2ccc(CC(C)N(C)C)cc2)cc1Nc1ccnc(-c2cccnc2)n1 (centres unmarked)
b: Cc1ccc(C(=O)Nc2ccc(C3CCN(C)CC3)cc2)cc1Nc1ccnc(-c2cccnc2)n1
Exercise: Higher half-life: a or b ? Please indicate the selected item by its label.
Solution: b
